Biological target: Thyroid hormone receptor beta (Homo sapiens)
Experiment: qHTS assay for small molecule antagonists of thyroid hormone receptor beta signaling (AID 588547);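 further: cells stimulated with 0.4 nM T3 agonist during compound exposure; on the % scale 0 is the no-effect control and ±100 the full control effect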
Settings: TR-UAS-bla HEK293, beta-lactamase ratio, antagonist mode, 18 h
Description: NIH Chemical Genomics Center [NCGC] U.S. Environmental Protection Agency [EPA] National Institutes of Environmental Health Sciences [NIEHS] National Toxicology Program [NTP] […] NCGC Assay Protocol Summary Using a beta-lactamase reporter-gene under control of the TR response element, a cell-based assay [GeneBLAzer TR-UAS-bla-GripTite assay developed by Invitrogen] was used to measure TR-beta signaling in antagonist mode. […] Detection; Fluorescence; Envision plate reader
Records with an inconclusive call do not appear.
recorded.endpoint: activity change % (negative = inhibition) (%)
Hi! Could you send only the number? It should be in %, unit omitted.

Inquiry: Consider the molecule CCCCC1C(=O)N(c2ccccc2)N(c2ccccc2)C1=O and give its measured activity change % (negative = inhibition).
Reply text: 6.78

Inquiry: Recorded activity change % (negative = inhibition) of O=C(O)c1cc(-c2ccccc2)nc2ccccc12 , please.
Reply text: 5.82

Inquiry: Consider the molecule shown here: CN(C)CCC(c1ccccc1)c1ccccn1 (stereo not given) What is its recorded activity change % (negative = inhibition)?
Reply text: -6.32

Inquiry: Give the measured activity change % (negative = inhibition) of CC(=O)N[C@@H](CS)C(=O)O .
Reply text: -10.2

Inquiry: Reported activity change % (negative = inhibition), molecule O=c1c(-c2ccc(O)cc2)coc2cc(O)ccc12 : ____
Reply text: 20.4

----------
Test: Quantitative High-Throughput drug screen in 47 multiple myeloma cell lines against the NCATS MIPE library collection: KMS11_JCRBsus cell viability assay (AID 1919873); further: nearly all actives have a fitted effect of over 50% in size
Conditions: KMS11 myeloma viability, CellTiter-Glo ATP luminescence, 48 h; series mostly up to 45.8 µM
Results filed as inconclusive are left out. Active and inactive are the calls of the source. Calls come from the whole dose curve; as a rule, active = well fitted cell-killing curve with a large enough effect; inconclusive = small, poorly fitted or top-dose-only effect, or effect the other way; inactive = no such curve, though single readings can be large or run the other way.
Respond with a class label; see yes for active, no for inactive

Inquiry: Check the results log: what was the call for O=C1C(Cl)=C(NCCN2CCOCC2)C(=O)c2ncccc21 ?
Reply text: yes

Inquiry: Field: outcome | Entry: O=C(CCCCCCC(=O)Nc1ccccc1)NO
Reply text: yes

Inquiry: Short answer needed: outcome of this test for CC(C)C[C@H](CC(=O)O)C(=O)N[C@@H](Cc1c[nH]c2ccccc12)C(=O)N[C@@H](C)c1ccccc1 ?
Reply text: no

Inquiry: What outcome does the record of this test show for CC1(C)CCC(CN2CCN(c3ccc(C(=O)NS(=O)(=O)c4ccc(NCC5CCOCC5)c([N+](=O)[O-])c4)c(Oc4cnc5[nH]ccc5c4)c3)CC2)=C(c2ccc(Cl)cc2)C1 ?
Reply text: no

Inquiry: Recorded call for OC[C@H]1O[C@@H](Oc2cc(O)cc(C=Cc3ccc(O)cc3)c2)[C@H](O)[C@@H](O)[C@H]1O ?
Reply text: no

Inquiry: Short answer needed: outcome of this test for COc1cc2ncnc(Nc3ccc(F)c(Cl)c3)c2cc1OCCCN1CCOCC1 ?
Reply text: yes

Inquiry: Hi, do you know how COc1cccc2c1CCCC2CCCN1CCN(C2CCCCC2)CC1 (stereo not given) came out in this test?
Reply text: yes

Inquiry: // param item: NC(=O)c1cccc(-c2cc(Nc3ccc(OC(F)(F)F)cc3)ncn2)c1 ; yields the recorded call
Reply text: yes

Inquiry: What is the recorded call for this compound in the test? O=C1c2ccccc2-[n+]2ccc3c([nH]c4ccccc43)c21
Reply text: yes

Inquiry: So what was the verdict on CCOC(CN1C(=O)[C@](CC(=O)Nc2ccc(C)cc2)(NC(=O)Nc2ccc(C)cc2)c2ccccc21)OCC in this test?
Reply text: yes

Inquiry: Identify the outcome logged in this assay for the compound shown: O=C(O)c1ccc(-c2cc3cccnc3c(-c3ccc4nonc4c3)n2)cc1
Reply text: yes

Inquiry: Test call, this compound: COc1ccc2cccc(CCNC(C)=O)c2c1
Reply text: no

Inquiry: Hi, sorry to bother you, what did the test record for CN(C[C@@H]1COCCO1)S(=O)(=O)Nc1ccc2ccc3ncc(-c4cnn(C)c4)cc3c(=O)c2c1 ?
Reply text: yes

Inquiry: # outcome recorded in this test, key = Clc1cc(Cl)cc(CNc2ncncc2-c2ccc3c(c2)OCO3)c1
Reply text: yes

Inquiry: // return assay outcome for CN(C)c1cc(NC(=O)CNC(C)(C)C)c(O)c2c1C[C@@H]1C[C@H]3[C@H](N(C)C)C(=O)C(C(N)=O)=C(O)[C@@]3(O)C(=O)C1=C2O
Reply text: no

Inquiry: Called result for COc1ccc(C2Sc3ccccc3N(CCN(C)C)C(=O)C2OC(C)=O)cc1 (stereo not given)
Reply text: no

Inquiry: Outcome? Cc1cnc(C(=O)O)c[n+]1[O-]
Reply text: no

Inquiry: Query: recorded result category for CCCCCN(C)CCC(O)(P(=O)(O)O)P(=O)(O)O in this test
Reply text: no

Inquiry: What was the test verdict on CN(C)Cc1ccc(-c2nc3cccc4c3n2CCNC4=O)cc1 ?
Reply text: yes

Inquiry: Could you please tell me the result logged for CC(C)(C)C(=O)Oc1ccc2c(c1)nc(NC(=O)c1cccc([N+](=O)[O-])c1)n2CCCO in this assay?
Reply text: no

----------
Assay: Cell Viability - LYMP1-003 - Assay at 24 hr (AID 963)
Conditions: LYMP1-003 lymphoblastoid cell viability; series mostly up to 92.2 µM
Calls of active or inactive are those of the source. Calls follow the shape of the dose curve; as a rule, active = well fitted cell-killing curve with a large enough effect; inconclusive = small, poorly fitted or top-dose-only effect; inactive = flat fitted curve, though single readings scatter.
Could you please pick one outcome from this set? active, inactive

Inquiry: Assay result, entry O=c1c(O)c(-c2ccc(O)cc2)oc2cc(O)cc(O)c12 — outcome?
Reply text: inactive

Inquiry: Please share the test call associated with CCn1cc(C(=O)O)c(=O)c2ccc(C)nc21 .
Reply text: inactive

Inquiry: What is the recorded call for this compound in the test? O=c1cc(-c2ccc(O)cc2)oc2cc(O)cc(O)c12
Reply text: inactive

Inquiry: Record request — test call for O=c1[nH]cnc2c1ncn2[C@H]1CC[C@@H](CO)O1
Reply text: inactive

Inquiry: Query: recorded result category for CC1=C(/C=C/C(C)=C/C=C/C(C)=C/C(=O)Nc2ccc(O)cc2)C(C)(C)CCC1 in this test
Reply text: active

Inquiry: Entry O=C(O)Cc1cccc2ccccc12 : call = ?
Reply text: inactive

Inquiry: Check the results log: what was the call for O=c1c(-c2ccc(O)cc2)coc2cc(O)ccc12 ?
Reply text: inactive

Inquiry: Record request — test call for CCCCC1C(=O)N(c2ccccc2)N(c2ccccc2)C1=O
Reply text: inactive

Inquiry: For O=C(O)c1cc(O)c2c(c1)C(=O)c1cccc(O)c1C2=O , what call appears in the results of this test?
Reply text: inactive

Inquiry: Recorded test call requested for CC(=O)O[C@]1(C(C)=O)CC[C@H]2[C@@H]3C=C(Cl)C4=CC(=O)[C@@H]5C[C@@H]5[C@]4(C)[C@H]3CC[C@@]21C
Reply text: inactive

----------
Experiment: Quantitative High-Throughput drug screen in 47 multiple myeloma cell lines against the NCATS MIPE library collection: MM1S_ATCC cell viability assay (AID 1918980); further: nearly all actives have a fitted effect of over 45% in size
Details: MM1S myeloma viability, CellTiter-Glo ATP luminescence, 48 h; series mostly up to 45.8 µM
Results filed as inconclusive are left out. The source made the active and inactive calls. Calls come from the whole dose curve; as a rule, active = well fitted cell-killing curve with a large enough effect; inconclusive = small, poorly fitted or top-dose-only effect, or effect the other way; inactive = no such curve, though single readings can be large or run the other way.
Pick one and only one: true for active, false for inactive

Inquiry: Please share the test call associated with NC(=O)[C@@H](CCC(F)(F)F)N(Cc1ccc(-c2ncon2)cc1F)S(=O)(=O)c1ccc(Cl)cc1 .
Reply text: true

Inquiry: Query: recorded result category for CC#CCn1c(N2CCC[C@@H](N)C2)nc2c1c(=O)n(Cc1nc(C)c3ccccc3n1)c(=O)n2C in this test
Reply text: true

Inquiry: Short answer needed: outcome of this test for CCc1ccc(OCc2ccccc2C(=O)Nc2ccc3nc(C)cc(N)c3c2)cc1 ?
Reply text: true

Inquiry: Tell me the recorded outcome of this test for Nc1ncnc2c1nc(Cl)n2[C@@H]1O[C@H](CO)[C@@H](O)[C@@H]1O .
Reply text: true

Inquiry: Which outcome did this test record for the molecule CC1(C)O[C@H]2C[C@@H]3[C@H]4CCC5=CC(=O)C=C[C@]5(C)[C@@]4(F)[C@@H](O)C[C@]3(C)[C@]2(C(=O)CO)O1 ?
Reply text: true

Inquiry: For this molecule, state the assay outcome: O=C(O)c1c(Cl)c(Cl)c(Cl)c(Cl)c1-c1c2cc(I)c(=O)c(I)c-2oc2c(I)c(O)c(I)cc12
Reply text: true

Inquiry: Give the logged outcome of this assay for the following molecule: O=C1NC(=O)C(=Cc2ccc3c(c2)OC(F)(F)O3)S1
Reply text: true

Inquiry: Could you please tell me the result logged for CO[C@H]1C[C@@H]2CC[C@@H](C)[C@@](O)(O2)C(=O)C(=O)N2CCCC[C@@H]2C(=O)O[C@H]([C@H](C)C[C@@H]2CC[C@H](OC(=O)C(C)(CO)CO)[C@H](OC)C2)CC(=O)[C@H](C)C=C(C)[C@@H](O)[C@@H](OC)C(=O)[C@H](C)C[C@H](C)C=CC=CC=C1C in this assay?
Reply text: false

Inquiry: Which outcome was entered for the molecule C[C@H]1[C@H](NC(=O)C(=NOC(C)(C)C(=O)O)c2csc(N)n2)C(=O)N1S(=O)(=O)O in this test?
Reply text: true

Inquiry: Returns: the outcome recorded for COc1ccc2c3c1OC1C[C@@H](O)C=C[C@@]31CCN(C)C2 (stereo not given in full) in this assay.
Reply text: true
